Counter-ions that a name gives are not always drawn.
Field: melting point. Provide a value for each of the compounds that follow.

For the compound Cl.O=C(NC1=Nc2ccc(Br)cc2C2=NCCN12)c1cccs1 [Example 2-352] , report melting point.
275 °C

For the compound COc1c(OCCCC(=O)N2CCOCC2)ccc2c1N=C(/C=C(\O)c1cccnc1)N1CCN=C21.Cl [Example 1-198] , report melting point.
215 to 216 °C

For the compound COc1c(OCCCC(=O)O)ccc2c1N=C(/C=C(\O)c1cccnc1)N1CCN=C21 (as salt: hydrochloride) [Example 1-7] , report melting point.
249 to 251 °C

For the compound COc1c(OCC(=O)O)ccc2c1N=C(/C=C(\O)c1cccnc1)N1CCN=C21.Cl [Example 1-22] , report melting point.
240 °C (dec.)

For the compound Cc1cnc(C(=O)NC2=Nc3ccccc3C3=NCCN23)cn1 [Example 2-294] , report melting point.
257 °C (dec.)

For the compound COc1cc2c(c(OC)c1C)N=C(/C=C(\O)c1cccnc1)N1CCN=C21.Cl [Example 1-63] , report melting point.
285 °C

For the compound Cc1cccc(C(=O)NC2=Nc3ccccc3C3=NCCN23)c1 [Example 2-216] , report melting point.
201 to 203 °C

For the compound Cl.O/C(=C\C1=Nc2ccccc2C2=NCCN12)c1ccc2[nH]cnc2c1 [Example 1-157] , report melting point.
> 300 °C
